# studySystem: T1, full-length beta-Catenin (Uniprot ID P35222) (Homo sapiens (Human), UniProt P35222 1-781)
# T1 construct: also called bCat; B-Catenin
# T1 sequence: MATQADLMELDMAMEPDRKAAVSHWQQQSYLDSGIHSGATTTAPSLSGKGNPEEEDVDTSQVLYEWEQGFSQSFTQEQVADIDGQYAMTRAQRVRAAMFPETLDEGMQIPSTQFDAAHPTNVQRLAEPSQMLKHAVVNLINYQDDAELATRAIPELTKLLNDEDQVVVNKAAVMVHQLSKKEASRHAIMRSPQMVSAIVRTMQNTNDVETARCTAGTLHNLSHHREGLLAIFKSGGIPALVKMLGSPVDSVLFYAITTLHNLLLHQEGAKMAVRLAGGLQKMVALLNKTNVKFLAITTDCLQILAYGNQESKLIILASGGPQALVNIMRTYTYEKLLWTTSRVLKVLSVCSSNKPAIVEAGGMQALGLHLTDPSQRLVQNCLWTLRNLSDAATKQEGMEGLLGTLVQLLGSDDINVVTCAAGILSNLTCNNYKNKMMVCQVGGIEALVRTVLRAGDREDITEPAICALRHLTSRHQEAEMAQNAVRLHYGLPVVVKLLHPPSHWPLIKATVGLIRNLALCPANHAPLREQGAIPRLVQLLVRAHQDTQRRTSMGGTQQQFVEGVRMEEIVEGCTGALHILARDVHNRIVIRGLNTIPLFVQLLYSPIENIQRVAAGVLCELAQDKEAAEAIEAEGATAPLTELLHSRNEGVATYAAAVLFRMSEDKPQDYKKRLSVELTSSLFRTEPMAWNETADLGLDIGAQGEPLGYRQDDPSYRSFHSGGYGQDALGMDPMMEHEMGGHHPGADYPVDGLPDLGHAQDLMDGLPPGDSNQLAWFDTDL
# protocolDetails: fluorescence polarization competition vs 5FAM-TCF4(10-53) on full-length beta-catenin
Starred links: 1 amine or outer side, 2 acyl side, 3 side chain; linkers in the order of their positions; H or OH if unused. Positions of bridges follow the written chain, without caps; N, C: chain ends. Non-standard residues stand in square brackets, D forms with d. Primed or numbered codes have the meaning given here. B5(9) = 2-amino-2-(pent-4-en-1-yl)hept-6-enoic acid (2,2-bis(4-pentenyl)glycine), C=CCCCC(CCCC=C)(N[*:1])C(=O)[*:2]; B5(14) = 2-amino-2-(pent-4-en-1-yl)hept-6-enoic acid (bis-pentenylglycine), C=CCCCC(CCCC=C)(N[*:1])C(=O)[*:2]; Bta = N[C@@H](Cc1csc2ccccc12)C(=O)O; αAllylPro = C=CC[C@@]1(C(=O)O)CCCN1; S8 = C=CCCCCCC[C@](C)(N)C(=O)O
Below, each entry is listed with its recorded IC50.
Give your result as the value with the unit written after it.

Q. # return recorded IC50 for entry XDAXADAAFVXFWQ (not fully specified; N-terminal Ac; PL3 at 1; B5 at 4; S8 at 11; C-terminal NH2; stapled PL3-B5 and B5-S8 (olefin metathesis), Stapled peptide composition; also called Ac-PL3-Asp-Ala-B5-Ala-Asp-Ala-Ala-Phe-Val-S8-Phe-Trp-Gln-NH2) [I-351]
A. 5 µM

Q. # return recorded IC50 for entry XDAXDDAAAVXFWQ (not fully specified; N-terminal Ac; PL3 at 1; B5 at 4; S8 at 11; C-terminal NH2; stapled PL3-B5 and B5-S8 (olefin metathesis), Stapled peptide composition; also called Ac-PL3-Asp-Ala-B5-Asp-Asp-Ala-Ala-Ala-Val-S8-Phe-Trp-Gln-NH2) [I-353]
A. 5 µM

Q. # return recorded IC50 for entry Ac-[αAllylPro]DA[B5(9)]DDAAFT[S8]F[Bta]Q-NH2 (staple 1-4, 4-11, Stapled peptide composition; also called Ac-PL3-Asp-Ala-B5-Asp-Asp-Ala-Ala-Phe-Thr-S8-Phe-BztA-Gln-NH2) [I-342]
A. 0.0585 µM

Q. # return recorded IC50 for entry Ac-[αAllylPro]DA[B5(14)]DDAAHV[S8]FWQ-NH2 (staple 1-4, 4-11; not fully specified (residue 9), Stapled peptide composition; also called Ac-PL3-Asp-Ala-B5-Asp-Asp-Ala-Ala-3meH-Val-S8-Phe-Trp-Gln-NH2) [I-332]
A. 5 µM
